# SYSTEM_UNDER_TEST: Alpha-2A adrenergic receptor (Homo sapiens, UniProt P08913); also: assay procedure not described here
# Sequence (P08913 whole entry): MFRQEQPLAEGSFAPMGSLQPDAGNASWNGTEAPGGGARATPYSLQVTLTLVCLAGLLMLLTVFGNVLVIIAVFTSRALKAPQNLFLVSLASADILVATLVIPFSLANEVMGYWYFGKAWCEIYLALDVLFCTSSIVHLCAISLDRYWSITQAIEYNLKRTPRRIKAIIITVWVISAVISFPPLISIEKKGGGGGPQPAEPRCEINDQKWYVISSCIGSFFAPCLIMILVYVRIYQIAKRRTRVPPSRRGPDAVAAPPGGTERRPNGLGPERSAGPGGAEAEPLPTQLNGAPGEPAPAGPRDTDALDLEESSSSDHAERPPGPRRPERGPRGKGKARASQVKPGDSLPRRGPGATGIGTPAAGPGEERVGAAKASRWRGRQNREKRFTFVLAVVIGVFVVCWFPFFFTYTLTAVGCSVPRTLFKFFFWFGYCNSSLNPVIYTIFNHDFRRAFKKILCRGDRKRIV
# Type: functional, cell-based
MEASUREMENT_KIND: AC50 (µM)
Just the number in µM, nothing appended.

{"columns": ["MOLECULE", "SYSTEM_UNDER_TEST", "MEASURED_NUMBER"],
 "data": [
  ["CC(=O)Oc1ccccc1C(=O)Nc1ncc([N+](=O)[O-])s1 [NITAZOXANIDE]", "Alpha-2A adrenergic receptor (Homo sapiens, UniProt P08913)", 19]
]}

Shift focus to the following entry.
**Q:** Identify measured AC50 associated with OCCN1CCN(CC/C=C2/c3ccccc3Sc3ccc(Cl)cc32)CC1 [ZUCLOPENTHIXOL]
**A:** 7.3

meta.source: ChEMBL document CHEMBL5291721
